Assay: Potentiometric titrations: protonation constants
Format: physicochemical
Details: cumulative; potentiometry, 0.1 M KCl, 25° C.
# strict inequality: Protonation constant (log K) 4H+ + L ⇄ H4L4+ < 30 yields true, everything else yields false

[[record]]
compound = "CN(CCCN)CCCNC(=O)[C@@H]1C2C=CC(C2)[C@H]1C(=O)NCCCN(C)CCCN"
answer_label = "true"

[[record]]
compound = "CN1CCCNCc2cccc(c2)CNCCCN(C)CCCNC(=O)/C=C\\C(=O)NCCC1"
answer_label = "true"

[[record]]
compound = "CN(CCCN)CCCNC(=O)/C=C/C(=O)NCCCN(C)CCCN"
answer_label = "false"

[[record]]
compound = "NCCCNCCCCNCCCN [Compound 4, spermine, reference compound]"
answer_label = "false"


This collection of values is drawn from patent US20080221218A1.
